test: dog 28-day repeat dose PO study; assay type: in vivo; conditions: both sexes, beagle, dog, in vivo, po, dog 28-day PO, all animals; read-out: median tmax
Measured Quantity: Tmax at 28 days (h)
Respond with the bare value in h.

Problem: May I ask what Tmax at 28 days has been recorded for CC1(C)SC(Nc2ccccc2O)=N[C@@H]1C(=O)O.Cl ?
Solution: 1

###

experiment: rat 28-day GLP repeat dose PO study (toxicokinetics); type: in vivo; settings: female, rat, in vivo, po, 500 mg/kg
Measured Quantity: CL/F (mL/min/kg)
Respond with the bare value in mL/min/kg.

Problem: May I ask what CL/F has been recorded for CC1(C)SC(Nc2ccccc2O)=N[C@@H]1C(=O)O.Cl [Compound 1] ?
Solution: 27.8
